Please go through the items and note down their pIC50.
biological target: full-length VicK protein (Streptococcus pneumoniae, UniProt Q8DPL8); construct: 6 His; made in house; experiment: Inhibition assay for ATPase activity of VicK (Kinase-Glo Luminescent Kinase Assay); format: biochemical; details: IC50 (inhibition of VicK ATPase activity / autophosphorylation), 6 μg VicK, 5 μM ATP
Sequence (Q8DPL8 whole entry): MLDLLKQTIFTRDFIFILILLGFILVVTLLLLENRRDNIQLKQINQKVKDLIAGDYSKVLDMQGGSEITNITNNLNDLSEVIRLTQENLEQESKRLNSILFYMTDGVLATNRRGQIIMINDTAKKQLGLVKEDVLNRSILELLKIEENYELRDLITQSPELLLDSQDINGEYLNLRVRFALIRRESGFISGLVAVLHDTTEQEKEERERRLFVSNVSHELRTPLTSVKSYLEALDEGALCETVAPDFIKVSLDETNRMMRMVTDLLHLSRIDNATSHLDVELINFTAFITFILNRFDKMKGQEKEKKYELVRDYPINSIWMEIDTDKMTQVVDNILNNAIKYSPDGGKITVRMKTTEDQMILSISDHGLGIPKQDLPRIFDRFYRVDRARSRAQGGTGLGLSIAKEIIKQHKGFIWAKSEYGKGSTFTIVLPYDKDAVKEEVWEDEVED
Quick note: pIC50 values are minus log10 of concentrations in mol/L.

Enquiry: What measured pIC50 goes with CCCCCCCCCCCCOC(=O)c1cc(O)c(O)c(O)c1 [Compound 5, Dodecyl gallate] ?
Return: 5.04

Enquiry: # get_value(readout='pIC50', item= CCCCCCCC=NNc1ccc([N+](=O)[O-])cc1[N+](=O)[O-] [Compound 2, Octanal 2,4-dinitrophenylhydrazone] )
Return: 5.27

---

What CC50 at 48 h was measured for each of the following?
Test: Cytotoxicity assay (MTT)
Type: cell-based
Conditions: African green monkey, Vero cells
Description: The cytotoxicity of the drugs to Vero cells (African green monkey kidney cells) was detected as previously described (Huang et al., [2012]) with minor modifications. In 96-well cell culture plates, the cells (~10^3 cells per well) were exposed to the serially diluted drugs for 48 h. […] The absorbance of each well was measured at 595 nm and then converted to percentages of the control (cells treated with 1% DMSO). […]

Enquiry: Quick one: CC50 at 48 h for CC(C)=CCCC1=CC(=O)c2c(O)ccc(O)c2C1=O ?
Return: 4.68 mM

Enquiry: Given the entry CCCCCCCC=NNc1ccc([N+](=O)[O-])cc1[N+](=O)[O-] [Compound 2, Octanal 2,4-dinitrophenylhydrazone] , report its measured CC50 at 48 h.
Return: > 4 mM

Enquiry: Recorded CC50 at 48 h for COC1=CC(=O)O[C@@H](/C=C/c2ccc3c(c2)OCO3)C1 , please?
Return: > 8 mM

---

Can you tell me MIC of pneumococcal strains, Range for the items I'm about to list?
test system: pneumococcal strains; assay: MIC against clinical pneumococcal strains (penicillin susceptible, intermediate, resistant); type: cell-based, Streptococcus pneumoniae; details: Penicillin resistant (n = 15)

Enquiry: Which measured MIC of pneumococcal strains, Range value corresponds to COC1=CC(=O)O[C@@H](/C=C/c2ccc3c(c2)OCO3)C1 ?
Return: 68.5 to 548 µg/mL

Enquiry: Reported MIC of pneumococcal strains, Range for CCCCCCCC=NNc1ccc([N+](=O)[O-])cc1[N+](=O)[O-] [Compound 2, Octanal 2,4-dinitrophenylhydrazone] : what is it?
Return: 77 to 616 µg/mL

Enquiry: Consider the compound CCCCCCCCCCCCOC(=O)c1cc(O)c(O)c(O)c1 [Compound 5, Dodecyl gallate] and give its measured MIC of pneumococcal strains, Range.
Return: 10.5 to 168.8 µg/mL

Enquiry: Could you tell me which MIC of pneumococcal strains, Range is on file for CC(C)=CCCC1=CC(=O)c2c(O)ccc(O)c2C1=O ?
Return: 8.5 to 136 µg/mL

Enquiry: // returns reported MIC of pneumococcal strains, Range for input CSC[C@H]1O[C@@H](n2cnc3c(N)ncnc32)[C@H](O)[C@@H]1O
Return: 296.8 to 593.6 µg/mL

---

Please go through the items and note down their IC50.
molecular target: full-length VicK protein (Streptococcus pneumoniae, UniProt Q8DPL8); construct: 6 His; made in house; experiment: Inhibition assay for ATPase activity of VicK (Kinase-Glo Luminescent Kinase Assay); format: biochemical; conditions: IC50 (inhibition of VicK ATPase activity / autophosphorylation), 6 μg VicK, 5 μM ATP; value in parentheses

Enquiry: Would you mind telling me what IC50 value was observed for CCCCCCCCCCCCOC(=O)c1cc(O)c(O)c(O)c1 [Compound 5, Dodecyl gallate] ?
Return: 9.07 µM

Enquiry: Fill in the blank: the reported IC50 of CCCCCCCC=NNc1ccc([N+](=O)[O-])cc1[N+](=O)[O-] [Compound 2, Octanal 2,4-dinitrophenylhydrazone] is ____.
Return: 5.35 µM
